Just for reference, PubChem BioAssay (NCI) is where these values come from.

- assay_text: NCI Yeast Anticancer Drug Screen. Data for the CLN2oe strain (AID 163);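 further: 0% = growth of vehicle-only control cultures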
- condition_parameters: S. cerevisiae CLN2oe strain, at 1.2 µM, hits give high values
The panel holds about 79,000 compounds, 15% with a hit somewhere; the sample as a whole holds those more often.
Field: growth inhibition. Provide a value for each of the molecules that follow.
Only the number, expressed in %, is required.

Quick note, growth inhibition for CCN(CC)C(=S)SC(=S)N(CC)CC landed at 0

Quick note, growth inhibition for O=C(Nc1cccs1)c1ccccc1 landed at 0

Quick note, growth inhibition for CCCCCCCN(CCCCCCC)CC(=O)c1ccc2cc(Cl)c3ccccc3c2c1 landed at 1

Quick note, growth inhibition for COC(=N)c1ccc(O)c(C)c1 landed at -2

Quick note, growth inhibition for O=C1c2ccccc2C(=O)c2sc(Nc3ccccc3Cl)nc21 landed at 3
